system: human maximum recommended daily dose, FDA database; test: DSSTox (FDAMDD) FDA Maximum (Recommended) Daily Dose Database; conditions: TherapeuticCategory: parenteral chelating agent; active compounds read low
measured_quantity: maximum recommended daily dose (mmol/kg-bw/day)

The reported maximum recommended daily dose (mmol/kg-bw/day) of the molecule "CC(=O)N(O)CCCCCNC(=O)CCC(=O)N(O)CCCCCNC(=O)CCC(=O)N(O)CCCCCN" was 0.178

----------
Exercise: state measured maximum recommended daily dose (mmol/kg-bw/day) for each of the compounds provided.
test system: human maximum recommended daily dose, FDA database; assay: DSSTox (FDAMDD) FDA Maximum (Recommended) Daily Dose Database; conditions: TherapeuticCategory: antipsychotic; dopamine receptor antagonist; active compounds read low
Answers are plain numbers.

>  <query_smiles>
CN1CCN(CCC=C2c3ccccc3Sc3ccc(S(=O)(=O)N(C)C)cc32)CC1

>  <study_target>
human maximum recommended daily dose, FDA database

>  <quantitative_readout>
0.00113

$$$$

Pending compound:
The reported maximum recommended daily dose (mmol/kg-bw/day) of the compound "OCCN1CCN(CCCN2c3ccccc3Sc3ccc(Cl)cc32)CC1" was 0.00099

----------
system: human maximum recommended daily dose, FDA database; assay: DSSTox (FDAMDD) FDA Maximum (Recommended) Daily Dose Database; details: TherapeuticCategory: anticholinergic; active compounds read low
measured_quantity: maximum recommended daily dose (mmol/kg-bw/day)
Numbers only.

>  <molecule>
CC[N+]1(C)CCCC(OC(=O)C(O)(c2ccccc2)c2ccccc2)C1 (stereo not drawn)

>  <quantitative_readout>
0.000576

$$$$
>  <molecule>
CC(C)[N+](C)(CCC(C(N)=O)(c1ccccc1)c1ccccc1)C(C)C

>  <quantitative_readout>
0.000472

$$$$

Hey, quick one: what's maximum recommended daily dose (mmol/kg-bw/day) for each of these?
1. CCN(CC)CC#CCOC(=O)C(O)(c1ccccc1)C1CCCCC1 (stereo not drawn)
2. OC(CCN1CCCC1)(c1ccccc1)C1CCCCC1 (stereo not drawn)
3. CCC(C)C(C(=O)OC1CCN(C)CC1)c1ccccc1 (stereo not drawn)

[0.000932, 0.00116, 0.00173]

Hey, quick one: what's maximum recommended daily dose (mmol/kg-bw/day) for each of these?
1. CN1[C@@H]2CC[C@H]1CC(OC(c1ccccc1)c1ccccc1)C2 (stereo partly drawn)
2. C[N+]12CCC(CC1)C(OC(=O)C(O)(c1ccccc1)c1ccccc1)C2 (stereo not drawn)

1. 0.000325
2. 0.00077

Hey, quick one: what's maximum recommended daily dose (mmol/kg-bw/day) for each of these?
1. CN1[C@@H]2CC(OC(=O)[C@H](CO)c3ccccc3)C[C@H]1[C@@H]1O[C@@H]12 (stereo partly drawn)
2. CCOC(=O)c1cncn1C(C)c1ccccc1 (stereo not drawn)
3. CCN(CC)CCOC(=O)C(c1ccccc1)c1ccccc1
4. COC1CC(=C(c2cccs2)c2cccs2)C[N+](C)(C)C1 (stereo not drawn)
5. C[N+]1(C)CCCC(OC(=O)C(O)(c2ccccc2)c2ccccc2)C1 (stereo not drawn)
6. CCN(CC)CCOC(=O)C1(C2CCCCC2)CCCCC1

1.09e-06
0.00246
0.0241
0.00375
0.00792
0.0043

----------
system: human maximum recommended daily dose, FDA database; assay: DSSTox (FDAMDD) FDA Maximum (Recommended) Daily Dose Database; settings: TherapeuticCategory: thyroid hormone; antihyperlipoproteinemic; active compounds read low
measured_quantity: maximum recommended daily dose (mmol/kg-bw/day)
Numbers only.

The reported maximum recommended daily dose (mmol/kg-bw/day) of the compound NC(Cc1cc(I)c(Oc2cc(I)c(O)c(I)c2)c(I)c1)C(=O)O (stereo unspecified) was 6.44e-06
